Every entry's value here was drawn from patent US9469647B2.

- experiment_description: Bridging study of monophosphate salt and free base in dog (plasma pharmacokinetics)
- Assay type: in vivo
- assay_setup: male, po, 40 mg/kg, dog M-2002, oral capsule
Structures can show the parent of a compound that is named as a salt.
property: Tmax (h)
Report the figure in h without appending any unit label.

Challenge: GET /values?readout=Tmax&item= CN1C(=O)c2c(nn(Cc3ccc(-c4cccc(F)n4)cc3)c2Nc2ccccc2)N2C1=N[C@@H]1CCC[C@@H]12 [Phosphate salt]
Response given: 2

----------
- experiment_description: Single rising dose clinical study (pharmacokinetic profile)
- Assay type: in vivo
- assay_setup: plasma; human; single oral dose 300 mg, aqueous solution; Mean (SD)
Counter-ions that a name gives are not always drawn.
property: Cmax (ng/mL)
Write down the numeric answer in ng/mL and omit the unit.

Challenge: Given the compound CN1C(=O)c2c(nn(Cc3ccc(-c4cccc(F)n4)cc3)c2Nc2ccccc2)N2C1=N[C@@H]1CCC[C@@H]12 [Phosphate salt] , what is its reported Cmax?
Response given: 828

----------
- experiment_description: Bridging study of monophosphate salt and free base in dog (plasma pharmacokinetics)
- Type: in vivo
- assay_setup: both sexes, po, 40 mg/kg, Mean (M-5001 to F-5102), oral gavage, read-out: E Half-life (converted)
property: half-life (h)
Entry rule: numbers only, all in h.

Challenge: # lookup: half-life of CN1C(=O)c2c(nn(Cc3ccc(-c4cccc(F)n4)cc3)c2Nc2ccccc2)N2C1=N[C@@H]1CCC[C@@H]12 [Free base API (amorphous)]
Response given: 10.8

----------
- experiment_description: Bridging study of monophosphate salt and free base in dog (plasma pharmacokinetics)
- Assay type: in vivo
- assay_setup: female, po, 40 mg/kg, dog F-2102, oral capsule
Where a name gives a salt, the structure may show the parent alone.
property: AUC
Please give the number followed by its unit.

Challenge: Recorded AUC of CN1C(=O)c2c(nn(Cc3ccc(-c4cccc(F)n4)cc3)c2Nc2ccccc2)N2C1=N[C@@H]1CCC[C@@H]12 [Phosphate salt] , please.
Response given: 20500 ng·h/mL

----------
- experiment_description: Bridging study of monophosphate salt and free base in dog (plasma pharmacokinetics)
- Assay type: in vivo
- assay_setup: both sexes, po, 40 mg/kg, Mean, oral capsule
Where a name gives a salt, the structure may show the parent alone.
property: Tmax
Please append the unit to your numeric answer.

Challenge: Item CN1C(=O)c2c(nn(Cc3ccc(-c4cccc(F)n4)cc3)c2Nc2ccccc2)N2C1=N[C@@H]1CCC[C@@H]12 [Phosphate salt] has what recorded Tmax?
Response given: 2 h

----------
- experiment_description: Single rising dose clinical study (pharmacokinetic profile)
- Type: in vivo
- assay_setup: plasma; human; single oral dose 25 mg, aqueous solution; Mean (SD)
Structures can show the parent of a compound that is named as a salt.
property: Cmax (ng/mL)
The reply should contain only the number, in ng/mL.

Challenge: May I ask what Cmax has been recorded for CN1C(=O)c2c(nn(Cc3ccc(-c4cccc(F)n4)cc3)c2Nc2ccccc2)N2C1=N[C@@H]1CCC[C@@H]12 [Phosphate salt] ?
Response given: 155

----------
- experiment_description: Bridging study of monophosphate salt and free base in dog (plasma pharmacokinetics)
- Assay type: in vivo
- assay_setup: male, po, 40 mg/kg, dog M-2001, oral capsule
- Procedure: The mono-phosphate salt of (6aR,9aS)-5,6a,7,8,9,9a-hexahydro-5-methyl-3-(phenylamino)-2-((4-(6-fluoropyridin-2-yl)phenyl)methyl)-cyclopent[4,5]imidazo[1,2-a]pyrazolo[4,3-e]pyrimidin-4(2H)-one is administered to dogs at a dose of 40 mg/kg in gelatin capsules or via oral gavage in a vehicle formulation of HCl-Citrate, pH 3.5, 0.5% methylcellulose in water. […] The analysis of drug concentration in plasma samples collected is analyzed. […]
Where a name gives a salt, the structure may show the parent alone.
property: Tmax

Challenge: Entry under review: CN1C(=O)c2c(nn(Cc3ccc(-c4cccc(F)n4)cc3)c2Nc2ccccc2)N2C1=N[C@@H]1CCC[C@@H]12 [Phosphate salt] . Reported Tmax?
Response given: 2 h

----------
- experiment_description: Single rising dose clinical study (pharmacokinetic profile)
- Format: in vivo
- assay_setup: plasma; human; single oral dose 10 mg, aqueous solution; Mean (SD)
Structures can show the parent of a compound that is named as a salt.
property: Tmax (h)
Write the number in h without appending the unit.

Challenge: Which value of Tmax has been reported for CN1C(=O)c2c(nn(Cc3ccc(-c4cccc(F)n4)cc3)c2Nc2ccccc2)N2C1=N[C@@H]1CCC[C@@H]12 [Phosphate salt] in the records?
Response given: 1

----------
- experiment_description: Bridging study of monophosphate salt and free base in dog (plasma pharmacokinetics)
- Type: in vivo
- assay_setup: female, po, 40 mg/kg, dog F-5101, oral gavage, read-out: E Half-life (converted)
property: half-life (h)
Return type: number; implicit unit h.

Challenge: Report half-life for CN1C(=O)c2c(nn(Cc3ccc(-c4cccc(F)n4)cc3)c2Nc2ccccc2)N2C1=N[C@@H]1CCC[C@@H]12 [Free base API (amorphous)] please.
Response given: 6.7

----------
- experiment_description: Bridging study of monophosphate salt and free base in dog (plasma pharmacokinetics)
- Format: in vivo
- assay_setup: male, po, 40 mg/kg, dog M-5001, oral gavage, read-out: E Half-life (converted)
property: half-life (h)
Report the figure in h without appending any unit label.

Challenge: Bench note: what half-life did CN1C(=O)c2c(nn(Cc3ccc(-c4cccc(F)n4)cc3)c2Nc2ccccc2)N2C1=N[C@@H]1CCC[C@@H]12 [Free base API (amorphous)] show?
Response given: 14.8

----------
- experiment_description: Bridging study of monophosphate salt and free base in dog (plasma pharmacokinetics)
- Assay type: in vivo
- assay_setup: female, po, 40 mg/kg, dog F-5101, oral gavage
property: AUC (ng·h/mL)
Number only, in ng·h/mL; omit the unit.

Challenge: Fill in: AUC of CN1C(=O)c2c(nn(Cc3ccc(-c4cccc(F)n4)cc3)c2Nc2ccccc2)N2C1=N[C@@H]1CCC[C@@H]12 [Free base API (amorphous)] is ___
Response given: 11500

----------
- experiment_description: Bridging study of monophosphate salt and free base in dog (plasma pharmacokinetics)
- Format: in vivo
- assay_setup: female, po, 40 mg/kg, dog F-5102, oral gavage
property: AUC (ng·h/mL)
Hi! Could you send only the number? It should be in ng·h/mL, unit omitted.

Challenge: So what does the record say about AUC for CN1C(=O)c2c(nn(Cc3ccc(-c4cccc(F)n4)cc3)c2Nc2ccccc2)N2C1=N[C@@H]1CCC[C@@H]12 [Free base API (amorphous)] ?
Response given: 14300

----------
- experiment_description: Bridging study of monophosphate salt and free base in dog (plasma pharmacokinetics)
- Format: in vivo
- assay_setup: male, po, 40 mg/kg, dog M-5001, oral gavage
property: Cmax (ng/mL)
Only the number, expressed in ng/mL, is required.

Challenge: Any idea what Cmax was measured for CN1C(=O)c2c(nn(Cc3ccc(-c4cccc(F)n4)cc3)c2Nc2ccccc2)N2C1=N[C@@H]1CCC[C@@H]12 [Free base API (amorphous)] ?
Response given: 902

----------
- experiment_description: Bridging study of monophosphate salt and free base in dog (plasma pharmacokinetics)
- Type: in vivo
- assay_setup: both sexes, po, 40 mg/kg, Mean (M-5001 to F-5102), oral gavage
- Method: The mono-phosphate salt of (6aR,9aS)-5,6a,7,8,9,9a-hexahydro-5-methyl-3-(phenylamino)-2-((4-(6-fluoropyridin-2-yl)phenyl)methyl)-cyclopent[4,5]imidazo[1,2-a]pyrazolo[4,3-e]pyrimidin-4(2H)-one is administered to dogs at a dose of 40 mg/kg in gelatin capsules or via oral gavage in a vehicle formulation of HCl-Citrate, pH 3.5, 0.5% methylcellulose in water. […] The analysis of drug concentration in plasma samples collected is analyzed. […]
property: Cmax (ng/mL)
A number alone suffices; assume ng/mL.

Challenge: Query (compound): CN1C(=O)c2c(nn(Cc3ccc(-c4cccc(F)n4)cc3)c2Nc2ccccc2)N2C1=N[C@@H]1CCC[C@@H]12 [Free base API (amorphous)] ; field requested: Cmax
Response given: 1020

----------
- experiment_description: Bridging study of monophosphate salt and free base in dog (plasma pharmacokinetics)
- Format: in vivo
- assay_setup: female, po, 40 mg/kg, dog F-1102, oral gavage
Structures can show the parent of a compound that is named as a salt.
property: Tmax (h)
Answer with a number only, understood to be in h.

Challenge: Entry CN1C(=O)c2c(nn(Cc3ccc(-c4cccc(F)n4)cc3)c2Nc2ccccc2)N2C1=N[C@@H]1CCC[C@@H]12 [Phosphate salt] : reported Tmax = ?
Response given: 8

----------
- experiment_description: Solubility study of phosphate salt crystals in aqueous media at pH 1.2-6.8
- Type: physicochemical
- assay_setup: 50 mM phosphate buffer, pH 2, aqueous buffer, thermodynamic from solid, pH 2, 50 mM phosphate buffer; read-out: Solubility after 1 hr
property: solubility at 1 hr

Challenge: // lookup solubility at 1 hr for CN1C(=O)c2c(nn(Cc3ccc(-c4cccc(F)n4)cc3)c2Nc2ccccc2)N2C1=N[C@@H]1CCC[C@@H]12 [Free base API (amorphous)]
Response given: > 20 mg/mL
